study_system: OR2A7 (Homo sapiens)
Sequence (Q96R45 1-310): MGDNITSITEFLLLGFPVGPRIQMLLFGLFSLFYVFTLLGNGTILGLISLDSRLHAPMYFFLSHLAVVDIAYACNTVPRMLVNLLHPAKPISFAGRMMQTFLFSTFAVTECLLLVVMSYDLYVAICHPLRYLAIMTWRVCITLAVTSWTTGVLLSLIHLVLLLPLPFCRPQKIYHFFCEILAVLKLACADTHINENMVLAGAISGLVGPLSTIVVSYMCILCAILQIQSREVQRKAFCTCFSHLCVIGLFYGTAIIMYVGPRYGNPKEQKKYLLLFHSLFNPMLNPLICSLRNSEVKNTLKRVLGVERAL
experimental_details: Yeast-based OR sensor, GFP dose-response
Type: cell-based
experimental_parameters: EC50, OR2A7 yeast sensor, GFP expression, 4 h, 0-1000 μM chemical, 1% DMSO
value_kind: pEC50
Units for pEC50: none; it is -log10 of a concentration expressed in mol/L.

*Q* Determine its reported pEC50: CC1=CCC2CC1C2(C)C (stereo not shown)
*A* 3.39

###

study_system: OR2T4 (Homo sapiens)
Sequence (Q8NH00 whole entry): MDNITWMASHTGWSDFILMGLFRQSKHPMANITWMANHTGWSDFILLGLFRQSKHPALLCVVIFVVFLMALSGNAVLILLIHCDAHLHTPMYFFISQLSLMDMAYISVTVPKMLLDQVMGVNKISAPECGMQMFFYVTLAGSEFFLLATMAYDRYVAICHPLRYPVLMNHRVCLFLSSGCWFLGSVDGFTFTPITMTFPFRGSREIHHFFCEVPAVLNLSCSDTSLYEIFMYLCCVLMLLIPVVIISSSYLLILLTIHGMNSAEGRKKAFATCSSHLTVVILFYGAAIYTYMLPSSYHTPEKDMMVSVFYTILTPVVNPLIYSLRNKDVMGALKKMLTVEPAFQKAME
experimental_details: Yeast-based OR sensor, GFP dose-response
Type: cell-based
experimental_parameters: OR2T4 vs no OR control
value_kind: OR-dependent activation, conclusion in words

compound | result
CC1=CCC2CC1C2(C)C (stereo not drawn) [α-pinene, alpha-pinene] | confirmed ligand
CCCCCCCCCCC=O [undecanal] | confirmed ligand

###

study_system: UniProt Q9H339
Sequence (Q9H339 1-312): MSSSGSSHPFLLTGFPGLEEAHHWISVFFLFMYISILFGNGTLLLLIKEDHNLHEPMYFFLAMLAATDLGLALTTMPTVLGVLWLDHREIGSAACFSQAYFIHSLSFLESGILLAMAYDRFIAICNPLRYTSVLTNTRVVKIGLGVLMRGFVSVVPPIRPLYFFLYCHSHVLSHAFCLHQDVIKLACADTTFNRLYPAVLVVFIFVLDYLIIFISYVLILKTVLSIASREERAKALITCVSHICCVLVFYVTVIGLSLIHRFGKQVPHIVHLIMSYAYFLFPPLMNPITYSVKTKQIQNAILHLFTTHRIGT
experimental_details: Yeast-based OR sensor, GFP dose-response
experimental_parameters: EC50, OR51B5 yeast sensor, GFP expression, 4 h, 0-1000 μM chemical, 1% DMSO
value_kind: EC50 (µM)
Reply numerically in µM, unit not repeated.

*Q* Determine its reported EC50: `CC(C)=CCC/C(C)=C/CC/C(C)=C/CO`
*A* 181
